// values below are reported pKd
Target: T1, Factor VIIIa (recombinant FVIII, Kogenate FS, activated with alpha-thrombin) (UniProt P00451 20-2351)
T1 construct: also called FVIIIa
T1 sequence (looked up): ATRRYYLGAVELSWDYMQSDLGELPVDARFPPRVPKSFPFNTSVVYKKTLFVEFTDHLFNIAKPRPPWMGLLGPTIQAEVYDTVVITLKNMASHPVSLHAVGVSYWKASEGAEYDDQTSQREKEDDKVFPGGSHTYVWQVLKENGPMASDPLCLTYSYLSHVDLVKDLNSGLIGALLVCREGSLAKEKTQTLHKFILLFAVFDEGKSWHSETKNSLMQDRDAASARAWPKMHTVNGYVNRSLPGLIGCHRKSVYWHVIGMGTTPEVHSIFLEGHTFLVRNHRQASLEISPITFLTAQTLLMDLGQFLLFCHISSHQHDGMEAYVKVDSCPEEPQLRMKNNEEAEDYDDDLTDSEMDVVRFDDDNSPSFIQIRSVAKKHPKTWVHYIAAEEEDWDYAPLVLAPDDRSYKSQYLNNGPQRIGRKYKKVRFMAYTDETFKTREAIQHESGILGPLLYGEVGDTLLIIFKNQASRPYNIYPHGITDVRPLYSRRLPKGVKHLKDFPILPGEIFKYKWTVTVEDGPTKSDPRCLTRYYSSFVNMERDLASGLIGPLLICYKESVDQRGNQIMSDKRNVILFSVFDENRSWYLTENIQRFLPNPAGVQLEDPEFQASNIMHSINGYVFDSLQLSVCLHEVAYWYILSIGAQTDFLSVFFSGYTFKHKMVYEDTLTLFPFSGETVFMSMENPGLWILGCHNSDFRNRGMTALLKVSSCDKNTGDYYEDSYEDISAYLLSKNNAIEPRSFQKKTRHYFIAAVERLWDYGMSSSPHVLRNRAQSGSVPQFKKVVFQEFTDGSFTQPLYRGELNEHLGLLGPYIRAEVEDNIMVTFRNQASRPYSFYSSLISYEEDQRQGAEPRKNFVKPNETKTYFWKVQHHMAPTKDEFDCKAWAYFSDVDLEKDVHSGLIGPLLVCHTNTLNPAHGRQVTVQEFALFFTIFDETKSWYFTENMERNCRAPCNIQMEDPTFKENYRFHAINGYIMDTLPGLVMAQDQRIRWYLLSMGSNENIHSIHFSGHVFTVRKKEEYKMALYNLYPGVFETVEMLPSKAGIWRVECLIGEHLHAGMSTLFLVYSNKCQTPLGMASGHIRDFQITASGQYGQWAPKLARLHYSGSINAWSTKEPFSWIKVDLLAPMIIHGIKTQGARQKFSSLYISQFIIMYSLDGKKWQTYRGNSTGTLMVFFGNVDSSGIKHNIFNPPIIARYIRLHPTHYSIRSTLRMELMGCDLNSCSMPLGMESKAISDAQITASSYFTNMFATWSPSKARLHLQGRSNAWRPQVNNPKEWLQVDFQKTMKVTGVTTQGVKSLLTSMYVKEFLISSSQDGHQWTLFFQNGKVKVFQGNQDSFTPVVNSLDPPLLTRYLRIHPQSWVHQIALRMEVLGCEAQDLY
Assay: functional cofactor affinity KD-app: fluorogenic FX activation (Xase) assay, FVIIIa titrated, PC/PS vesicles, saturating FX
Please report pKd as the negative decimal logarithm of the molar concentration, giving only the number.

[[record]]
binder = "FIXa-R338E/T343R/E410N (enzyme, also called R170E/T175R/E240N (chymotrypsin numbering)) chain 1: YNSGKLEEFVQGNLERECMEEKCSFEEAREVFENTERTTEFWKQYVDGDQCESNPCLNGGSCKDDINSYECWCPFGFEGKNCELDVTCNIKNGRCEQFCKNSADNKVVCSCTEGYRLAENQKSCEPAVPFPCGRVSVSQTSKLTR chain 2: VVGGEDAKPGQFPWQVVLNGKVDAFCGGSIVNEKWIVTAAHCVETGVKITVVAGEHNIEETEHTEQKRNVIRIIPHHNYNAAINKYNHDIALLELDEPLVLNSYVTPICIADKEYTNIFLKFGSGYVSGWGRVFHKGRSALVLQYLRVPLVDRATCLESTKFRIYNNMFCAGFHEGGRDSCQGDSGGPHVTEVEGTSFLTGIISWGEECAMKGKYGIYTKVSRYVNWIKNKTKLT"
result_number = 8.12


Here's the next entry for you.
Sample FIXa-Y155F/K247N/N249S/R338E/T343R (enzyme) chain 1: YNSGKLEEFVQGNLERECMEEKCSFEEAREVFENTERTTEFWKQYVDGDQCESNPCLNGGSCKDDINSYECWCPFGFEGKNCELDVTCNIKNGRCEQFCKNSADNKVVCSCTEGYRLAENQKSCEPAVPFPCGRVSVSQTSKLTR chain 2: VVGGEDAKPGQFPWQVVLNGKVDAFCGGSIVNEKWIVTAAHCVETGVKITVVAGEHNIEETEHTEQNRSVIRIIPHHNYNAAINKYNHDIALLELDEPLVLNSYVTPICIADKEYTNIFLKFGSGYVSGWGRVFHKGRSALVLQYLRVPLVDRATCLESTKFRIYNNMFCAGFHEGGRDSCQGDSGGPHVTEVEGTSFLTGIISWGEECAMKGKYGIYTKVSRYVNWIKEKTKLT ; pKd observed: 7.81
